# maps each entry to its gcPBM binding intensity (ln)
# Test system: PfAP2-G AP2 domain (GST-tagged)
# ASSAY_METHOD_TEXT: gcPBM binding intensity (ln(normalized median fluorescence intensity)); higher = stronger DNA binding
Whole data set: some 25,000 sequences, median “ln(normalized median fluorescence intensity)” near 10, cut for the highest 2% near 12. The list comes from a sample in which the highest values are over-represented; it also holds close analogues and randomly drawn sequences.
Keep it simple and answer with nothing but the number.

Reference set, count: 8
SEQ | READOUT_NUMBER
CATATATAACATATAACACACATACTTAGTATTACA [CACACA_site5674] | 10.1
ACGTATAATATGTACACACACATATATACAAAAAAA [CACACA_site917] | 11.5
ATATACACACAAAAACGTACACATATATATATGTAT [XGTACX_site2673] | 11.7
TGCTATAATTTATATACACACAAATATATACGCATA [CACACA_site4096] | 10
TCATTTTAAGGAAAAAGTACAAAATAATATGTTCCT [XGTACX_site1903] | 11
TATTGTATCCTTAATGCATGCACCAAATAAAAAAAG [TGCATGCA_site541] | 10.5
ATCCTTTATTTTTTTTGTACATAAAAATAACTCGAG [XGTACX_site3885] | 11.1
TATATTTCAGGGGGGAGTACAAATTTTTTTATATAA [XGTACX_site1600] | 11.8

The reported value for TATAAACGTATAATATGTACACACACATATATACAA [XGTACX_site1686] in terms of gcPBM binding intensity (ln) is 11.3

Recorded gcPBM binding intensity (ln) (sequence TTATTATGCTGAGTACGTACTTATATAAGAATAGCA [XGTACX_site2955] ): 11.8

The recorded gcPBM binding intensity (ln) for ATAATATGAAGAAGCACACTCAATTAAATACAGATA [CACACA_site4690] is 9.97

For TTTGCTTCCAAAAGTCGTACAAAAAATATTAAATAT [XGTACX_site4171] the sequence record lists gcPBM binding intensity (ln) as 11.6

Value of measured gcPBM binding intensity (ln) for the entry ATATGTTACTTTACATAAAGAAGAAGAAGAAGAAAA [CACACA_negctrl_site985] : 9.8

The sequence identified as GAACGTATCATGTGTACACACAAATTGTTTTTTTTT [CACACA_site2020] registered its gcPBM binding intensity (ln) at 11.7

Measured gcPBM binding intensity (ln), TATAAATTATATATTTGTACGTATATCACATATATA [XGTACX_site7053] : 11.3

Looking up TTTATTTATATTTATACACACAAACATAATACTACT [CACACA_site7039] , I see its gcPBM binding intensity (ln) listed as 10.3

get_value(item= AAAAAAAAAAAAACTACACACATACAAATATTTATA [CACACA_site5430] , readout=gcPBM binding intensity (ln)) returns 9.88

Entry TATAATTATATTTGGAGTACAAATTTTTTTTTTTTT [XGTACX_site7494] , gcPBM binding intensity (ln) reported as 11.5

Lookup result for TATATACACATATATAAACACACAAAAAAAAAAAAA [CACACA_site8626] ; measured gcPBM binding intensity (ln): 9.89

====

# Test system: PfAP2-G AP2 domain (GST-tagged)
# ASSAY_METHOD_TEXT: gcPBM binding intensity (ln(normalized median fluorescence intensity)); higher = stronger DNA binding
The full ranking holds about 25,000 sequences; the median of “ln(normalized median fluorescence intensity)” is about 10, and the highest 2% start at about 12. The sample holds the highest values, similar sequences and a random draw of the others, so the mix is not that of the screen.
Each item that follows carries a reported gcPBM binding intensity (ln).
Give your answer as a number; write no unit.

The recorded gcPBM binding intensity (ln) for entry AAGAAAAAAGGGGACAAGGCATATCTATATATACAT [TGCATGCA_negctrl_site172] equals 10.7

// field: gcPBM binding intensity (ln); key: TTTTATGGAAAGTGTTGTACATATTTTTGTATATGT [XGTACX_site7356] ; value = 11.4

What the record says about CCAGTGTGCACCTTGCGTACATATTAAATTAATTAA [XGTACX_site3729] : gcPBM binding intensity (ln) is 11.5

// gcPBM binding intensity (ln) lookup, sequence = TACACCAGTTGTGGGAGTACACAAAAAAAGGGAAAA [XGTACX_site6047] , result: 11.7

Note to self: gcPBM binding intensity (ln) recorded for "TTTGTGTGTACGCGTGTGCACATTTTTTTTTTTTTT" was 11.7

====

# Tested on: PfAP2-G AP2 domain (GST-tagged)
# ASSAY_METHOD_TEXT: gcPBM binding intensity (ln(normalized median fluorescence intensity)); higher = stronger DNA binding
The full ranking holds about 25,000 sequences; the median of “ln(normalized median fluorescence intensity)” is about 10, and the highest 2% start at about 12. What follows is part of a selection rich in the highest values, with near analogues and random picks from the rest.
Entries and their measured gcPBM binding intensity (ln) follow.
Provide a numeric answer; units are not to be included.

Solved cases (4 shown):
SEQ | PROPERTY_LABEL | READOUT_NUMBER
TATTTATAAAAATATACACACATACAAATATGCATA [CACACA_site4555] | gcPBM binding intensity (ln) | 9.81
GTATATTAATAAACATGTACACAATTTATTTATATT [XGTACX_site1012] | gcPBM binding intensity (ln) | 11.5
ATATTTATATTTATGTGTACATATGAAATAATTATT [XGTACX_site7765] | gcPBM binding intensity (ln) | 11.5
TATATATTATACACGTGTACACATTATAACAATATA [XGTACX_site7799] | gcPBM binding intensity (ln) | 11.7

Measured gcPBM binding intensity (ln) of TAATATTTATAAAATAGTACACAGAAAAAGCATTTT [XGTACX_site8948] : 11.4

# gcPBM binding intensity (ln) of AAGTTATTTATATATACACACAAATATAAATAATAT [CACACA_site1228] = 9.97

Per the record, ACTTCATTTTATAAGTGTACATAATTTGTTTATATA [XGTACX_site5453] has gcPBM binding intensity (ln) of 11.5

// sample TTATATTTTTTAATTACACACAATTTTTATAAATAT [CACACA_site4148] , its gcPBM binding intensity (ln) was 9.98

====

# Test system: PfAP2-G AP2 domain (GST-tagged)
# ASSAY_METHOD_TEXT: gcPBM binding intensity (ln(normalized median fluorescence intensity)); higher = stronger DNA binding
Whole data set: some 25,000 sequences, median “ln(normalized median fluorescence intensity)” near 10, cut for the highest 2% near 12. What follows is part of a selection rich in the highest values, with near analogues and random picks from the rest.
Measured gcPBM binding intensity (ln) values are reported for all entries that follow.
# output: bare number, no unit

get_value(item= AATAAAATAATAGGCACACATATATATATATATTAT [CACACA_site273] , readout=gcPBM binding intensity (ln)) returns 10.1

Short answer for CCTTTCTATTGAAAATGTACATATATATTATTATAT [XGTACX_site5527] : gcPBM binding intensity (ln) was 11.1

Kindly note the recorded gcPBM binding intensity (ln) for TCACTATAATAATTTACACACATTTTAAGAAAATGG [CACACA_site5867] , which is 10

Data point: TTTCATTTTAGAAGTACACACAAAAAATAAAATAAT [CACACA_site2141] ; gcPBM binding intensity (ln) = 11.6

AAAAAAAAAAAATGAGCACACATAAATAAAAACAAA [CACACA_site8447] has a reported gcPBM binding intensity (ln) of 10.2

Data point: ATAAAAATAAATAAATGTACATATATATATATATAT [XGTACX_site1277] ; gcPBM binding intensity (ln) = 11.1

Given item TTTTATGAAAAATGGCTTATCTGTAAAGAAGTGGAG [CACACA_negctrl_site1586] , the value recorded as its gcPBM binding intensity (ln) is 10.3

Value of gcPBM binding intensity (ln) reported for the sequence GTAATAATTTTTTGTAGTACACAAAAATTCATATTT [XGTACX_site2699] is 11.7

Reported gcPBM binding intensity (ln) of TATTCAAAGAAAAACTGTACGTGTAGCAAACGTCAT [XGTACX_site7713] : 11.5

For record ACATTCATAAAAAAAAGTACATTTTTTATAAAAGAA [XGTACX_site6197] the listed gcPBM binding intensity (ln) is 11.4

Sample ATATATTATTATAACTGTACTTTTTTTGTGGTTAAT [XGTACX_site8266] ; gcPBM binding intensity (ln) observed: 11.5

gcPBM binding intensity (ln) for ATCTCTTAAATTTTACGTACTTATTTTATCTTCTTA [XGTACX_site8877] is 11.2

Form field gcPBM binding intensity (ln), entry TAAGTCATATAAATGTGTACATAAAAAAAAAAAATG [XGTACX_site1645] : 11.6

Looking up TGTTTCTAAAAAAAAGGTACACATATATATAATATA [XGTACX_site3217] , I found its gcPBM binding intensity (ln) recorded as 11.4
